Can you tell me Plant response rating, Pigweed for the items I'm about to list?
system: pigweed; test: Test C pre-/postemergence test; assay type: in vivo, Amaranthus retroflexus; details: Preemergence, 31 g ai/ha; scale 0 to 100 (0 no effect, 100 complete control)
Write the value as a bare number.

Record summary for Cc1cc[n+]([O-])c(S(=O)(=O)Cc2c(C(F)(F)F)nn(C)c2Cl)c1 : reported Plant response rating, Pigweed = 80

// field: Plant response rating, Pigweed; key: Cn1nc(C(F)(F)F)c(C[S+]([O-])c2cc(Cl)cc[n+]2[O-])c1Cl (racemic) ; value = 100

Reported Plant response rating, Pigweed ( Cn1nc(C(F)(F)C(F)(F)F)c(C[S+]([O-])c2ccc(Cl)c[n+]2[O-])c1OCC(F)(F)F (stereo not drawn) ) = 80

// recorded Plant response rating, Pigweed for CC(Oc1c(C[S+]([O-])c2ccc(Cl)c[n+]2[O-])c(C(F)(F)F)nn1C)C(F)(F)F (stereo not drawn) : 10

The value of Plant response rating, Pigweed measured for the compound CCc1cc[n+]([O-])c([S+]([O-])Cc2c(C(F)(F)F)nn(C)c2OC(F)F)c1 (stereo not drawn) turned out to be 50

Please fill in: Plant response rating, Pigweed reported for Cn1nc(C(F)(F)F)c(C[S+]([O-])c2cccc[n+]2[O-])c1OCC(F)F (stereo not drawn) = 100

Sure, the documented Plant response rating, Pigweed for CC(C)c1cc[n+]([O-])c([S+]([O-])Cc2c(C(F)(F)F)nn(C)c2OC(F)F)c1 (stereo not drawn) is 100

Value of Plant response rating, Pigweed reported for the compound CCc1cc[n+]([O-])c(S(=O)(=O)Cc2c(C(F)(F)F)nn(C)c2OC(F)F)c1 is 60

Item: Cn1nc(C(F)(F)F)c(CS(=O)(=O)c2cc(C(C)(C)C)cc[n+]2[O-])c1OC(F)F | Plant response rating, Pigweed: 100

====

tested on: Russian thistle; assay: Test C pre-/postemergence test; type: in vivo, Salsola kali; details: Preemergence, 31 g ai/ha; scale 0 to 100 (0 no effect, 100 complete control)
Consider the following molecules; for each one, report its Plant response rating, Russian Thistle.
Keep it simple and answer with nothing but the number.

Plant response rating, Russian Thistle for Russian thistle with input CC(Oc1c(C[S+]([O-])c2cccc[n+]2[O-])c(C(F)(F)F)nn1C)C(F)(F)F (stereo not shown) equals 100

// returns Plant response rating, Russian Thistle for Cn1nc(C(F)(F)F)c(C(Cl)S(=O)(=O)c2cccc[n+]2[O-])c1OC(F)F (stereo not shown) with Russian thistle; value = 40

Bench note, Russian thistle: Cn1nc(C(F)(F)F)c(C[S+]([O-])c2cccc[n+]2[O-])c1OCC(F)F (stereo not shown) , Plant response rating, Russian Thistle reads 100

With Russian thistle as the test system, CC(Oc1c(C[S+]([O-])c2ccc(Cl)c[n+]2[O-])c(C(F)(F)F)nn1C)C(F)(F)F (stereo not shown) showed Plant response rating, Russian Thistle of 100

Bench note, Russian thistle: Cn1nc(C(F)(F)F)c(C[S+]([O-])c2ccc(Cl)c[n+]2[O-])c1OCC(F)(F)F (racemic) , Plant response rating, Russian Thistle reads 100

Given the molecule Cc1cc[n+]([O-])c(S(=O)(=O)Cc2c(C(F)(F)F)nn(C)c2OC(C)C(F)(F)F)c1 (stereo not shown) and test system Russian thistle, the measured Plant response rating, Russian Thistle is 0

Measured Plant response rating, Russian Thistle for this entry C#CCOc1c(CS(=O)(=O)c2cccc[n+]2[O-])c(C(F)(F)F)nn1C on Russian thistle: 100

====

System: common ragweed
Assay: Test C pre-/postemergence test
Assay type: in vivo, Ambrosia elation
Settings: Postemergence, 125 g ai/ha; scale 0 to 100, 0 no effect, 100 complete control
From the text: Seeds of plant species selected from blackgrass (Alopecurus myosuroides), downy brome (Bromus tectorum), green foxtail (Setaria viridis), Italian ryegrass (Lolium multiflorum), wheat (Triticum aestivum), wild oat (Avena fatua), catchweed bedstraw (Galium aparine), Russian thistle (Salsola kali), […] […]
Endpoint Name: Plant response rating, Ragweed
# answer = number (no unit)

Reported Plant response rating, Ragweed ( Cc1cc[n+]([O-])c([S+]([O-])Cc2c(C(F)(F)F)nn(C)c2OC(F)F)c1 (centres unmarked) ) = 10

Plant response rating, Ragweed recorded for this compound, CC(c1c(C(F)(F)F)nn(C)c1Cl)S(=O)(=O)c1ccc(Cl)c[n+]1[O-] (racemic) , is 0

Input Cn1nc(C(F)(F)F)c(C[S+]([O-])c2ccc(F)c[n+]2[O-])c1OCC(F)(F)F (centres unmarked) . Output Plant response rating, Ragweed: 50

Per the record, Cn1nc(C(F)(F)F)c(C[S+]([O-])c2ccc(Cl)c[n+]2[O-])c1OCC(F)(F)F (racemic) has Plant response rating, Ragweed of 0

Plant response rating, Ragweed recorded for this compound, CC(c1c(C(F)(F)F)nn(C)c1OC(F)F)S(=O)(=O)c1cccc[n+]1[O-] (centres unmarked) , is 5

====

I'd appreciate it if you could supply Plant response rating, Barley values for the items below.
tested on: winter barley; test: Test C postemergence test; assay type: in vivo, Hordeum vulgare; conditions: 250 g ai/ha, scale 0 to 100, 0 no effect, 100 complete control
The answer should be a number; do not append a unit.

Recorded Plant response rating, Barley (compound CCn1nc(C(F)(F)F)c(CS(=O)(=O)c2cc(C)cc[n+]2[O-])c1OCC(F)(F)F ): 20

Looking up CC(c1c(C(F)(F)F)nn(C)c1Cl)S(=O)(=O)c1ccc(Cl)c[n+]1[O-] (racemic) , I found its Plant response rating, Barley recorded as 0

Record summary for Cn1nc(C(F)(F)F)c(C[S+]([O-])c2cccc[n+]2[O-])c1OCC(F)(F)C(F)(F)F (stereo not drawn) : reported Plant response rating, Barley = 0

Memo: [O-][n+]1cc(Cl)ccc1[S+]([O-])Cc1c(C(F)(F)F)nn(CC(F)(F)F)c1Cl (stereo not drawn) , reported Plant response rating, Barley: 45

Record Cn1nc(C(F)(F)F)c(C[S+]([O-])c2ccc(Cl)c[n+]2[O-])c1OCC(F)(F)F (racemic) . Reported Plant response rating, Barley: 40

So for Cn1nc(C(F)(F)C(F)(F)F)c(C[S+]([O-])c2cccc[n+]2[O-])c1OCC(F)(F)F (stereo not drawn) , the logged Plant response rating, Barley turned out to be 0

====

Please provide measured Plant response rating, Bluegrass for the entries that follow.
Test system: annual bluegrass
Assay: Test F preemergence test
Format: in vivo, Poa annua
Settings: Preemergence; 31 g ai/ha; scale 0 to 100
Source text: Seeds of plant species selected from bermudagrass (Cynodon dactylon), Surinam grass (Brachiaria decumbens), large crabgrass (Digitaria sanguinalis), green foxtail (Setaria viridis), goosegrass (Eleusine indica), johnsongrass (Sorghum halepense), kochia (Kochia scoparia), pitted morningglory (Ipomoea lacunosa), purple nutsedge (Cyperus rotundus), common ragweed (Ambrosia elation), mustard (Brassica nigra), guineagrass (Panicum maximum), […] […]
Format: numeric value only, no unit, no commentary.

Entry Cc1cc([S+]([O-])Cc2c(C(F)(F)F)nn(C)c2OCC(F)(F)F)[n+]([O-])cc1Cl (stereo not shown) [Compound 70] , annual bluegrass data, Plant response rating, Bluegrass value: 75

Cc1cc[n+]([O-])c(S(=O)(=O)C(C)c2c(C(F)(F)F)nn(C)c2OC(F)F)c1 (stereo not shown) [Compound 11] tested on annual bluegrass gave Plant response rating, Bluegrass: 30

Cc1cc[n+]([O-])c([S+]([O-])Cc2c(C(F)(F)F)nn(C)c2OC(F)F)c1 (stereo not shown) [Compound 1] on annual bluegrass gives Plant response rating, Bluegrass = 25

# lookup: Cn1nc(C(F)(F)F)c(C[S+]([O-])c2ccc(Cl)c[n+]2[O-])c1OC(F)F (stereo not shown) [Compound 6] on annual bluegrass, Plant response rating, Bluegrass = 75

====

tested on: corn; assay: Test A pre-/postemergence greenhouse test; assay type: in vivo, Zea mays; details: Postemergence, 500 g ai/ha; 0 to 100 scale, 0 is no effect, 100 is complete control
Would you kindly list Corn plant response rating for each of these molecules?
# output: bare number, no unit

The molecule Cn1nc(C(F)(F)F)c(C[S+]([O-])c2ccc(Cl)c[n+]2[O-])c1Cl (racemic) showed Corn plant response rating equal to 60

Corn plant response rating in this record for Cn1nc(C(F)(F)F)c(C[S+]([O-])c2ccc(Cl)c[n+]2[O-])c1OCC(F)(F)F (racemic) : 70

Notebook: CCCc1cc[n+]([O-])c([S+]([O-])Cc2c(C(F)(F)F)nn(C)c2OCC(F)(F)F)c1 (stereo not drawn) , Corn plant response rating read as 70

Entry [O-][n+]1ccccc1[S+]([O-])Cc1c(C(F)(F)F)nn(CC(F)(F)F)c1Cl (stereo not drawn) ; Corn plant response rating = 50

Notebook: CC(c1c(C(F)(F)F)nn(C)c1OC(F)F)S(=O)(=O)c1cccc[n+]1[O-] (stereo not drawn) , Corn plant response rating read as 70

Lookup result for Cn1nc(C(F)(F)F)c(CS(=O)(=O)c2cc(C3CC3)cc[n+]2[O-])c1OC(F)F ; measured Corn plant response rating: 0

Entry CC(C)c1cc[n+]([O-])c(S(=O)(=O)Cc2c(C(F)(F)F)nn(C)c2OCC(F)(F)F)c1 , Corn plant response rating reported as 40

Briefly, Corn plant response rating measured for Cc1cc[n+]([O-])c([S+]([O-])Cc2c(C(F)(F)F)nn(C)c2OCC(F)F)c1 (stereo not drawn) : 80

The reported Corn plant response rating of the molecule Cn1nc(C(F)(F)C(F)(F)F)c(CS(=O)(=O)c2ccc(Cl)c[n+]2[O-])c1OCC(F)(F)F was 0

response.value for Cn1nc(C(F)(F)F)c(C[S+]([O-])c2ccc(F)c[n+]2[O-])c1OC(F)F (stereo not drawn) (field: Corn plant response rating) = 70

Corn plant response rating measured on Cn1nc(C(F)(F)F)c(CS(=O)(=O)c2ccc(Cl)c[n+]2[O-])c1OCC(F)F = 30

GET /value?item= Cn1nc(C(F)(F)F)c(C[S+]([O-])c2cccc[n+]2[O-])c1OCC(F)(F)F (racemic) &field=Corn plant response rating returns 70

Documented Corn plant response rating of Cn1nc(C(F)(F)F)c(C[S+]([O-])c2cc(Cl)cc[n+]2[O-])c1Cl (racemic) : 50

Item: CCCc1cc[n+]([O-])c(S(=O)(=O)Cc2c(C(F)(F)F)nn(C)c2OC(F)F)c1 | Corn plant response rating: 40

So, CC(c1c(C(F)(F)F)nn(C)c1OC(F)F)S(=O)(=O)c1ccc(Br)c[n+]1[O-] (racemic) ? Its Corn plant response rating was 0
